system: A549/ATCC NSCLC; assay: NCI-60 one-dose screen, 48 h (100 = growth as untreated, 0 = no growth, -100 = all killed); settings: 10 µM unless noted
About 83,000 compounds went through this panel and 20% of them were active in at least one assay; those are over-represented in the sample as a whole.
measured quantity: growth (%)

> print(dat)
                                   compound  assay.value
1  COc1ccc(C2CC(c3cccs3)=NN2c2ccc(S(=O)(=O)NC(=O)NCc3cccc(OC)c3)cc2)cc1 (stereo not drawn)         5.45
2  O=C(NCCCN1CCN(CCCNC(=O)C2CCCCC2)CC1)C1CCCCC1          101
3  CC(C)C[C@H](NC(=O)[C@H](Cc1ccccc1)n1ccc(N2CCCCC2)cc1=O)B(O)O           19

---

Measured growth accompanies every entry in the list below.
tested on: OVCAR-8 ovarian; experiment: NCI-60 one-dose screen, 48 h (100 = growth as untreated, 0 = no growth, -100 = all killed); conditions: 10 µM unless noted
This is part of a sample that, as a whole, favours compounds with a hit. Of some 83,000 tested, about 20% had one in any assay.
measured quantity: growth (%)

> print(dat)
                                    compound  assay.value
 1  COc1cc(NCCCN=C(N)NC(N)=NC(C)C)c2ncccc2c1         88.5
 2  C=CCN=C1NC(=O)/C(=C/c2cc(C(C)(C)C)c(O)c(C(C)(C)C)c2)S1         95.8
 3  Cc1c(C2=NNC(c3ccc4c(c3)OCO4)C2)[n+]([O-])c2ccccc2[n+]1[O-] (stereo not given)          109
 4    COc1ccccc1OCC(=O)Nc1sc2c(c1C(N)=O)CCC2         76.9
 5  O=C(/C=C/CN1CCCCC1)Nc1cc2c(Nc3ccc(F)c(Cl)c3F)ncnc2cc1OCCOC(F)F         19.5
 6  CSc1nc(-c2cc3ccccc3o2)cc(-c2ccc(Cl)cc2)c1C#N         28.7
 7  O=C1CCC/C=C\C[C@H]2C=CC(=O)/C2=C/C[C@H](C/C=C\CC(F)(F)F)O1         10.4
 8         NCCSC(c1ccccc1)(c1ccccc1)c1ccccc1           25
 9           c1cc(-c2ccc3c(c2)OCO3)n2nccc2n1         98.6
10  CCCC(C(=O)OCC)C(C)OC(=O)OCC (stereo not given)         96.4
11  O=C(Nc1cccc(Cl)c1)c1cc([N+](=O)[O-])ccc1O         69.3
12  CCNC(=O)CCCCC(=O)c1c(C)[nH]c(/C=C2\N=C(c3ccc[nH]3)C=C2OC)c1C        -38.3
13  O=C(Cc1c(F)cccc1Cl)Nc1ccc(S(=O)(=O)Nc2ncccn2)cc1          113
14  CCC(=O)Oc1cc(/C=C/C(=O)O[C@H]2C[C@H]3CN4CCc5c([nH]c6cc(OC)ccc56)[C@@H]4C[C@@H]3[C@@H](C(=O)OC)[C@@H]2OC)ccc1OC         86.8
15  CCC(=O)Oc1ccc2c(c1)CC[C@@H]1[C@@H]2CC[C@]2(C)C[C@H](OC(=O)CC)C[C@@H]12         87.9

---

Tested on: HOP-92 NSCLC
Assay: NCI-60 one-dose screen, 48 h (100 = growth as untreated, 0 = no growth, -100 = all killed)
Conditions: 10 µM unless noted
Description: Growth inhibition of the HOP-92 human Non-Small Cell Lung tumor cell line is measured as a screen for anti-cancer activity. Cells are grown in 96 well plates and exposed to the test compound for 48 hours. Compounds are tested at a single concentration, which is 10^-5 M for most compounds. The reported endpoint is percent growth (GI% or GIPRCNT), where numbers from 0 - 100% represent growth inhibition, and numbers from -100% - 0 represent cell death. […]
Compounds without any hit were thinned out: in the full panel of roughly 83,000, 20% have a hit.
measured quantity: growth (%)

> print(dat)
                                   compound  unit.name  assay.value
1  O=Nc1c(-c2c(O)[nH]c3ccc([N+](=O)[O-])cc23)[nH]c2ccc(O)cc12          %         -3.1
2  COC1=CC(c2ccc[nH]2)=N/C1=C\c1[nH]c(C)c(C(=O)CCCCC(=O)NCc2ccccc2)c1C          %        -55.5
3  COc1ccc2c(c1)C=CC(C#N)N2C(=O)c1ccccc1 (configuration not stated)          %           34
4          Cc1nc2scc(-c3ccccc3)n2c(=O)c1CCO          %         84.6
5  COc1cc(Cn2c(SCC(=O)Nc3ccc(Cl)cc3)nc3ccccc3c2=O)cc(OC)c1OC          %        -20.8
6  Cc1ccc(Oc2nc3ccccc3cc2-c2nnc(Cn3c(COc4ccccc4)nc4ccccc43)o2)cc1          %         14.2
7  Cc1nc(Nc2cccnc2)sc1C(=O)/C=C/c1ccc(F)cc1          %         88.6

---

Test system: HCC-2998 colon
Assay: NCI-60 one-dose screen, 48 h
Details: 10 µM unless noted
Protocol: Growth inhibition of the HCC-2998 human tumor cell line is measured as a screen for anti-cancer activity. Cells are grown in 96 well plates and exposed to the test compound for 48 hours. Compounds are tested at a single concentration, which is 10^-5 M for most compounds. The reported endpoint is percent growth (GI% or GIPRCNT), where numbers from 0 - 100% represent growth inhibition, and numbers from -100% - 0 represent cell death. For example, a value of 40 represents 60% growth inhibition. […]
This is part of a sample that, as a whole, favours compounds with a hit. Of some 83,000 tested, about 20% had one in any assay. The source made the active and inactive calls. How the source made its calls: active means growth percent below 10; inactive means the rest.
Outcome codes: active, inactive

compound	group
Cc1cc(-c2ccccc2)c(C)n1Cc1ccc(Cl)cc1	inactive
Cn1c(-c2nonc2NC(=O)c2ccc(F)cc2)nc2ccccc21	inactive
CCC1CCc2nc3sc(C(=O)Nc4ccccc4C)c(N)c3cc2C1 (stereo not drawn)	inactive
Nc1c(C(=O)Nc2cccc([N+](=O)[O-])c2)sc2nc3c(cc12)C(O)CCC3 (stereo not drawn)	inactive
Cc1ccc2nc(-c3c(N)n[nH]c3CCCO)[nH]c(=O)c2c1	inactive
O=c1oc2cc(OS(=O)(=O)c3ccccc3)c(Cl)cc2c2c1CCCCCC2	inactive
Cc1cc(C(=O)O)c(N)c(C)n1	inactive
COc1ccccc1OCC(=O)Nc1sc2c(c1C(N)=O)CCC2	inactive
COc1ccc2c(c1)NC(=O)CN2c1nc(C)nc2ccccc12	inactive
CCCCCCCCCCCCCCCCC(Br)C(=O)O (stereo not drawn)	inactive
COc1cccc2cc(-c3cc4ccccc4[nH]3)/c(=N/C(=S)Nc3ccccc3)oc12	inactive
COC1=CC(c2ccc[nH]2)=N/C1=C\c1[nH]c(C)c(C(=O)CCC(=O)Oc2ccc3c(c2)CCC2C3CC[C@]3(C)[C@@H](O)CC[C@@H]23)c1C (stereo partly drawn)	active
Cc1ccc(C2=NN(c3ccc(S(=O)(=O)NC(=O)NCc4ccccc4)cc3)C(c3ccc(N(C)C)cc3)C2)c(C)c1 (stereo not drawn)	inactive

---

tested on: LOX IMVI melanoma; experiment: NCI-60 one-dose screen, 48 h; conditions: 10 µM unless noted
This is part of a sample that, as a whole, favours compounds with a hit. Of some 83,000 tested, about 20% had one in any assay. Activity calls are given as the source filed them. The calls were made as follows: active = growth percent below 10; inactive = the rest.
Labels: 1.0 = active, 0.0 = inactive

> print(dat)
                                    compound  group
 1  COc1cc2c3c(c(=O)oc2cc1OS(=O)(=O)c1ccc(C(F)(F)F)cc1)CCCCC3    0.0
 2  O=C(N/N=C/c1c(Cl)cccc1Cl)c1ccccc1Nc1ccnc(C(F)(F)F)c1    0.0
 3           c1cc(-c2ccc3c(c2)OCO3)n2nccc2n1    0.0
 4  CC(Br)C(OC(=O)c1ccccc1Cl)c1cc2c(cc1Br)OCO2 (stereo not drawn)    0.0
 5  N#Cc1ncc(-c2ccc(F)c(F)c2F)c(NC2CCCCCC2)n1    0.0
 6  COc1cc(Cn2c(SCC(=O)Nc3ccc(Cl)cc3)nc3ccccc3c2=O)cc(OC)c1OC    0.0
 7  COc1ccc(C(=O)/C=C/c2ccc(/C=C/c3cc(OC)c(OC)c(OC)c3)cc2)cc1    0.0
 8            Nc1cc2c(cc1N)-c1cc(N)c(N)cc1C2    0.0
 9  Cc1ccc(S(=O)(=O)OC2COCOC2C(OS(=O)(=O)c2ccc(C)cc2)C2OCOCC2OS(=O)(=O)c2ccc(C)cc2)cc1 (stereo not drawn)    0.0
10            CC1=C(C#N)C(C)(C)C(C#N)=C(C)N1    0.0
11  CCCCCCCC/C=C\CCCCCCCCOc1ccccc1CCOP(=O)(O)OCC[N+](C)(C)C    0.0
12  CCN1C(=S)N(CC)C2Nn3c(s/c(=C4\C(=O)N(C)c5ccccc54)c3=O)=NC21 (stereo not drawn)    0.0
13  Cc1cc2c(C(C)C)c(O)c(O)c(C=NCCCCCCC(=O)O)c2c(O)c1-c1c(C)cc2c(C(C)C)c(O)c(O)c(C=NCCCCCCC(=O)O)c2c1O    1.0
14  C=C1C(=O)O[C@H]2[C@H](O)[C@@H](C)CCC/C(C)=C/CC[C@@]3(C)O[C@@H]3C[C@@H]12    0.0
15  COc1ccc(/C=C/C(=O)c2ccc(NC(=O)CN3CCN(c4cc5c(cc4F)c(=O)c(C(=O)O)cn5C4CC4)CC3)cc2)cc1    0.0
16           c1ccc2nc(-c3ccc4ccccc4n3)ccc2c1    0.0
17  COc1ccc(C2CC(c3cccs3)=NN2c2ccc(S(=O)(=O)NC(=O)NCc3cccc(OC)c3)cc2)cc1 (stereo not drawn)    0.0
18  CCN(C(=O)c1cc2ccccc2[nH]1)[C@H]1CCC[C@@H](NCc2ccc(OC)cc2)C1    0.0
19  COc1ccc2c(c1)NC(=O)CN2c1nc(NC2CC2)nc2ccccc12    0.0
20  CC(C)[C@H](CO)Nc1nc(Nc2ccc(C(=O)NCCNS(=O)(=O)c3cccc4c(N(C)C)cccc34)c(Cl)c2)c2ncn(C(C)C)c2n1    1.0
21                       Nc1nc(-c2ccccc2)cs1    0.0
22  CCN1C(=O)/C(=c2\sc3n(c2=O)C2C(NN=3)N(CC)C(=S)N2CC)c2ccccc21 (stereo not drawn)    0.0
23  COc1ccc(OC)c(NC(=O)c2cc(S(=O)(=O)N3CCc4ccccc43)ccc2OC)c1    0.0
24   Cc1cc(Nc2nc(-c3ccncc3)nc3ccccc23)n[nH]1    0.0
25                     NC(=O)c1ccc2c(c1)OCO2    0.0
26  COc1cc2nc(N3CCC[C@@H](NC4=CC(=O)c5ccccc5C4=O)C3)nc(N)c2cc1OC    1.0
27  CC(=O)OCC1OC(OCC2OC(OC(C)=O)C(OC(C)=O)C(OC(C)=O)C2OC(C)=O)C(OC(C)=O)C(OC(C)=O)C1OC(C)=O (stereo not drawn)    0.0
28  COc1cc(C2C3=C(COC3=O)Nc3c2ccc2c3CCCC2)cc2c1OCO2 (stereo not drawn)    0.0
